- Tested on: YST-1
- protocol: drug sensitivity score (DSS, CellTiter-Glo viability, 72 h) (DSS (dimensionless)); higher = more sensitive; extreme values may be limits of the assay
measure_name: drug sensitivity score

compound | value_reported
CCCCCOC(=O)Nc1nc(=O)n([C@@H]2O[C@H](C)[C@@H](O)[C@H]2O)cc1F [Capecitabine] (max concentration tested 10000 nM) | 0
Cc1sc2c(c1C)C(c1ccc(Cl)cc1)=N[C@@H](CC(=O)OC(C)(C)C)c1nnc(C)n1-2 [JQ1] (max concentration tested 10000 nM) | 13.1
CN1CCC(CNc2ccc3ncc(-c4cccc(OC(F)(F)F)c4)n3n2)CC1 [SGI-1776] (max concentration tested 10000 nM) | 9
C=CC(=O)Nc1cccc(Nc2nc(Nc3ccc(OCCOC)cc3)ncc2F)c1 [Spebrutinib] (max concentration tested 1000 nM) | 0.89
c1ccc(Cn2c(-c3ccc(OC[C@H](C4CCNCC4)n4c(-c5ccccc5)nc5ccccc54)cc3)nc3ccccc32)cc1 [deltarasin] (max concentration tested 10000 nM) | 5.29
CC1CCC(n2c3cnccc3c3cnc(Nc4ccc5c(n4)CCN(C(=O)CO)C5)nc32)CC1 (stereo unspecified) [AMG-925] (max concentration tested 1000 nM) | 0.02

###

- System: YST-1
- protocol: drug sensitivity score (DSS, CellTiter-Glo viability, 72 h) (DSS (dimensionless)); higher = more sensitive; extreme values may be limits of the assay
measure_name: drug sensitivity score

compound | value_reported
CNc1ncc2cc(-c3cc(NC(=O)NCCC(C)(C)C)c(F)cc3C)c(C)nc2n1 (max concentration tested 10000 nM) | 6.37
COc1cc2c(NC3CCN(C(C)C)CC3)nc(N3CCC(F)(F)CC3)nc2cc1OCCCN1CCCC1 [UNC0642] (max concentration tested 10000 nM) | 5.26
CCN1CCN(Cc2ccc(-c3cc4c(N[C@H](C)c5ccccc5)ncnc4[nH]3)cc2)CC1 [NVP-AEE788] (max concentration tested 2500 nM) | 1.87
O=[N+]([O-])c1ccc2c(c1)S(=O)(=O)C=C2 [Stattic] (max concentration tested 50000 nM) | 17.4
O=C1CCC(N2C(=O)c3ccccc3C2=O)C(=O)N1 (stereo not drawn) [Thalidomide] (max concentration tested 10000 nM) | 0
N#Cc1ccc(C(c2ccc(C#N)cc2)n2cncn2)cc1 [Letrozole] (max concentration tested 10000 nM) | 0
COc1ccc(Cl)c(Nc2nc3ccccc3nc2NS(=O)(=O)c2cccc(NC(=O)C(C)(C)N)c2)c1 [Pilaralisib] (max concentration tested 2500 nM) | 2.53
O=C(Nc1ccc(OC(F)(F)F)cc1)c1sccc1NCc1ccnc2ccccc12 [OSI-930] (max concentration tested 2500 nM) | 0
COCC1(CO)C(=O)C2CCN1CC2 (stereo not drawn) [APR-246] (max concentration tested 10000 nM) | 0
Oc1ccc2c(c1)CC[C@H](c1ccccc1)[C@@H]2c1ccc(OCCN2CCCC2)cc1 [Lasofoxifene] (max concentration tested 1000 nM) | 0
CCN(CC)C(=S)SSC(=S)N(CC)CC [Disulfiram] (max concentration tested 100000 nM) | 30.7
COc1cc2ncnc(Nc3ccc(F)c(Cl)c3)c2cc1NC(=O)/C=C/CN1CCCCC1 [Dacomitinib] (max concentration tested 1000 nM) | 0
COc1ccc(S(=O)(=O)Nc2cccnc2Nc2ccc(O)cc2)cc1 [ABT-751] (max concentration tested 10000 nM) | 10.8

###

In this section we review reported % inhibition values for a set of compounds.
- System: HS-PSS
- protocol: % inhibition of CellTiter-Glo viability at highest tested concentration (72 h), relative to DMSO and benzethonium chloride controls; higher = more inhibition

compound | units_of_measure | % inhibition
O=C(NC[C@H](O)CO)c1ccncc1Nc1ccc(I)cc1F [Pimasertib] (max concentration tested 10000 nM) | % | 44.3
COc1ccc(-c2nc(N3CCOCC3)c3sc(CN(C)c4ncc(C(=O)NO)cn4)cc3n2)cn1 [CUDC-907] (max concentration tested 10000 nM) | % | 98.6
C=CC(=O)Nc1cc2c(Nc3ccc(F)c(Cl)c3)ncnc2cc1OCCCN1CCOCC1 [Canertinib] (max concentration tested 10000 nM) | % | 88.7
O=C(/C=C\n1cnc(-c2cc(C(F)(F)F)cc(C(F)(F)F)c2)n1)NNc1cnccn1 [Selinexor] (max concentration tested 10000 nM) | % | 72.3
CC(=O)O[C@]1(C(C)=O)CC[C@H]2[C@@H]3C=C(C)C4=CC(=O)CC[C@]4(C)[C@H]3CC[C@@]21C [Megestrol acetate] (max concentration tested 10000 nM) | % | -2.66
CCn1c(-c2nonc2N)nc2c(C#CC(C)(C)O)ncc(OC[C@H]3CCCNC3)c21 (max concentration tested 10000 nM) | % | 3.9
CCCCC/C=C/C=C1/C(=O)C=C[C@@H]1C/C=C\CCCC(=O)O [15D-PGJ2] (max concentration tested 3000 nM) | % | 3.17
CCCc1cc(C)[nH]c(=O)c1CNC(=O)c1cc(-c2ccnc(N3CCN(C)CC3)c2)cc2c1cnn2C(C)C [GSK343] (max concentration tested 10000 nM) | % | 94.3
Cc1ccc(NC(=O)c2ccc(CN3CCN(C)CC3)cc2)cc1Nc1nccc(-c2cccnc2)n1 [Imatinib] (max concentration tested 10000 nM) | % | 58.8
CNC(=O)c1ccccc1Sc1ccc2c(/C=C/c3ccccn3)n[nH]c2c1 [Axitinib] (max concentration tested 10000 nM) | % | 38
CN(C)Cc1c(C(=O)NCCOc2ccc(C(=O)NO)cc2)oc2ccccc12 [Abexinostat] (max concentration tested 10000 nM) | % | 96.2
Cc1cnc(-c2ccccc2C(C)C)nc1NCc1ccc(-n2ccnn2)cc1 [ML323] (max concentration tested 10000 nM) | % | 42

###

- System: S462
- protocol: % inhibition of CellTiter-Glo viability at highest tested concentration (72 h), relative to DMSO and benzethonium chloride controls; higher = more inhibition

compound | % inhibition, %
Cn1cnc2c(F)c(Nc3ccc(Br)cc3F)c(C(=O)NOCCO)cc21 [MEK-162] (max concentration tested 1000 nM) | 29.8
O=C(O)CC[C@H]1CC[C@@](c2cc(F)ccc2F)(S(=O)(=O)c2ccc(Cl)cc2)CC1 [MK-0752] (max concentration tested 1000 nM) | 6.43
C[C@@H](C(=O)O)c1ccc(-c2ccccc2)c(F)c1 [Tarenflurbil] (max concentration tested 10000 nM) | -5.38

###

- Tested on: HS-Sch-2
- protocol: drug sensitivity score (DSS, CellTiter-Glo viability, 72 h) (DSS (dimensionless)); higher = more sensitive; extreme values may be limits of the assay
In this section we review reported drug sensitivity score values for a set of compounds.
measure_name: drug sensitivity score

compound | value_reported
COc1cc2ncnc(Oc3cccc(NC(=O)Nc4cc(C(C)(C)C(F)(F)F)on4)c3)c2cc1OC (max concentration tested 10000 nM) | 0
COc1cccc2c1c(O)c(C(=O)N(C)c1ccc(C(F)(F)F)cc1)c(=O)n2C [Tasquinimod] (max concentration tested 10000 nM) | 0
CC1(C)NC(=O)N(c2ccc([N+](=O)[O-])c(C(F)(F)F)c2)C1=O [Nilutamide] (max concentration tested 10000 nM) | 0.51
O=S(=O)(c1cccc2c(O)nccc12)N1CCCNCC1 [Hydroxyfasudil] (max concentration tested 37500 nM) | 1.47
C#Cc1cccc(Nc2ncnc3cc(OCCOC)c(OCCOC)cc23)c1 [Erlotinib] (max concentration tested 10000 nM) | 5.08
C=C(c1ccc(C(=O)O)cc1)c1cc2c(cc1C)C(C)(C)CCC2(C)C [Bexarotene] (max concentration tested 10000 nM) | 0

###

In this section we review reported relative IC50 values for a set of compounds.
- System: HS-Sch-2
- protocol: relative IC50 (inflection point of fitted dose-response curve, CellTiter-Glo viability, 72 h; top asymptote may be below 50% inhibition); higher = less potent
measure_name: relative IC50 (nM)

entry_smiles | value_reported
c1ccc2c(CCNc3ccc(Nc4ccncc4)cc3)c[nH]c2c1 | 3740
O=C(NOCCO)c1ccc2cncn2c1Nc1ccc(I)cc1F | 368
Nc1ccn([C@@H]2O[C@H](CO)[C@@H](O)C2(F)F)c(=O)n1 | 2.09
CC(C)N(CCCNC(=O)Nc1ccc(C(C)(C)C)cc1)C[C@H]1O[C@@H](n2cc(Br)c3c(N)ncnc32)[C@H](O)[C@@H]1O | 3000
CO[C@H]1C[C@@H]2CC[C@@H](C)[C@@](O)(O2)C(=O)C(=O)N2CCCC[C@H]2C(=O)O[C@H]([C@H](C)C[C@@H]2CC[C@@H](OC(=O)C(C)(CO)CO)[C@H](OC)C2)CC(=O)[C@H](C)/C=C(\C)[C@@H](O)[C@@H](OC)C(=O)[C@H](C)C[C@H](C)/C=C/C=C/C=C/1C | 1.18
CC(C)[C@H](C(=O)Nc1ccc(C(=O)NO)cc1)c1ccccc1 | 1150
NS(=O)(=O)OC[C@@H]1C[C@@H](n2ccc3c(N[C@H]4CCc5ccccc54)ncnc32)C[C@@H]1O | 46.8
CC(C)NC(=O)COc1cccc(-c2nc(Nc3ccc4[nH]ncc4c3)c3ccccc3n2)c1 | 653
